Tested on: HEp-2
Experiment: Cytotoxicity against human Hep2 cells after 72 hrs
Assay type: functional
Conditions: HEp-2, 72 h, read-out: ED50 (the source's name)
Exercise: state measured EC50 for each of the molecules provided.
One number for each entry, in µg/mL.

CCCCC[C@H]1CCCCCCCCCC(=O)O[C@H]2[C@@H](O)[C@H](O[C@H]3[C@H](O1)O[C@H](C)[C@H](O)[C@@H]3O)O[C@@H](C)[C@@H]2O[C@@H]1O[C@@H](C)[C@H](O[C@@H]2O[C@@H](C)[C@H](OC(=O)C(C)C)[C@@H](O)[C@H]2O)[C@@H](O[C@@H]2O[C@@H](C)[C@H](O)[C@@H](O)[C@H]2O)[C@H]1OC(=O)[C@@H](C)CC = 10.2

// each molecule listed below needs its EC50
1. CCCCCCCCCCCC(=O)O[C@H]1[C@H](O[C@@H]2[C@H]3OC(=O)CCCCCCCCC[C@H](CCCCC)O[C@@H]4O[C@H](C)[C@H](O)[C@H](O)[C@H]4O[C@H](O[C@H]2C)[C@@H]3O)O[C@@H](C)[C@H](O[C@@H]2O[C@@H](C)[C@H](OC(=O)[C@@H](C)CC)[C@@H](O)[C@H]2O)[C@H]1O[C@@H]1O[C@@H](C)[C@H](O)[C@@H](O)[C@H]1O
2. CCCCC[C@H]1CCCCCCCCCC(=O)O[C@H]2[C@H](O[C@H]3[C@H](O1)O[C@H](C)[C@H](O)[C@@H]3O)O[C@@H](C)[C@H](O[C@@H]1O[C@@H](C)[C@H](O[C@@H]3O[C@@H](C)[C@H](OC(=O)[C@@H](C)CC)[C@@H](O)[C@H]3O)[C@@H](O[C@@H]3O[C@@H](C)[C@H](O)[C@@H](O)[C@H]3O)[C@H]1OC(=O)[C@@H](C)CC)[C@H]2O

Reply |
1. 4.7
2. 10.7

Ask | I have this molecule here, CCCCC[C@H]1CCCCCCCCCC(=O)O[C@H]2[C@H](O)[C@@H](CO)O[C@@H](O[C@H]3[C@H](O1)O[C@H](C)[C@H](O)[C@@H]3O)[C@@H]2O[C@@H]1O[C@@H](C)[C@H](OC(=O)[C@@H](C)CC)[C@@H](O[C@@H]2O[C@@H](C)[C@H](O)[C@@H](O)[C@H]2O)[C@H]1OC(=O)[C@@H](C)CC , and I need its recorded EC50.
Reply | 1.6
